molecular target: HLA-DR DRB1*0405 (human); assay: competition assay, purified HLA, inhibition of 125I-labelled reference peptide
Please go through the items and note down their pIC50.
The read-out pIC50 is expressed as -log10 of concentration in moles per litre.

Request: GET /values?readout=pIC50&item= GSYFFGDNAEEYDN (modifications not checked) [Flu.NP.488]
Result: 7.19

Request: GET /values?readout=pIC50&item= LILYDKEEIRRIWRQ (modifications not checked) [Flu.NP.111]
Result: 5.12

Request: GET /values?readout=pIC50&item= QKAMMDQVRESRNPG (modifications not checked) [Flu.NP.238]
Result: 4.88

Cited source: patent US20080032921A1
